FYI, the data here is from the supplement of paper PMC6555819.

tested on: PPARg:RXRa DBDmut IVT, anti-RXR (DBD mutation: RXRa K156A/R161A, NR concentration 270 nM, RXRa partner concentration 90 nM); test: PBM binding z-score (relative to random genomic background probes); higher = stronger binding; sequences stand for … in GC…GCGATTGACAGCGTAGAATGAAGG
Please use condition met whenever PBM binding z-score is not below 2, and condition not met whenever it is.

sequence text | classification
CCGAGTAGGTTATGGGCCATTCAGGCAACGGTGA | condition met
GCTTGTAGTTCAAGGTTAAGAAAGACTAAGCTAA | condition not met
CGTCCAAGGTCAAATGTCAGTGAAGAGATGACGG | condition met
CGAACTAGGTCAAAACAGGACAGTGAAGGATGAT | condition met
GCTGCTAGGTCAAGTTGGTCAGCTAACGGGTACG | condition met
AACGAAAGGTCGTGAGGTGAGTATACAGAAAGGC | condition not met
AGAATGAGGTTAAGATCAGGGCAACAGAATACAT | condition met
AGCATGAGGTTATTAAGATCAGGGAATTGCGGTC | condition not met
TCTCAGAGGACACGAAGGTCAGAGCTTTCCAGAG | condition not met
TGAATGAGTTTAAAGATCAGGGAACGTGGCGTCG | condition not met
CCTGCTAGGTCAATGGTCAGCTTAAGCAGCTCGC | condition met
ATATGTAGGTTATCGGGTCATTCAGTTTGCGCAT | condition met
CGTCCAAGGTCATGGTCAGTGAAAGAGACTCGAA | condition met
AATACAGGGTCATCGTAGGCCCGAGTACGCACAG | condition met
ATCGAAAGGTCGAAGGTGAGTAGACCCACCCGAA | condition not met
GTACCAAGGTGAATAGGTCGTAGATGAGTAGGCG | condition not met
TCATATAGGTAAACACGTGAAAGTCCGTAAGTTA | condition met
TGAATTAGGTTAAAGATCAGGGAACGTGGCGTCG | condition met
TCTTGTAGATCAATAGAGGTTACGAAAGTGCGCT | condition not met
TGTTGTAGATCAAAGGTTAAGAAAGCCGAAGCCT | condition not met
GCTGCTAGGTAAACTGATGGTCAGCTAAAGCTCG | condition not met
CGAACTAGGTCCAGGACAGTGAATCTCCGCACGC | condition met
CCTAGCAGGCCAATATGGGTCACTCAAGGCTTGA | condition met
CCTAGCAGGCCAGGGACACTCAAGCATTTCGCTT | condition not met
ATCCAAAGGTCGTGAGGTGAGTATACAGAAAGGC | condition not met
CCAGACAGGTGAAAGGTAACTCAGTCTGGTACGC | condition met
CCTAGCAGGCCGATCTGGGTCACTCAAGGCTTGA | condition met
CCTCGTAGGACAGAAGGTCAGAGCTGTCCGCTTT | condition not met
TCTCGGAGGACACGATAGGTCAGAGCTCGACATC | condition not met
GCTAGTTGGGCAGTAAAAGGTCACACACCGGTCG | condition not met
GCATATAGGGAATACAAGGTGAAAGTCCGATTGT | condition not met
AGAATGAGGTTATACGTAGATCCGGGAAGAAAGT | condition met
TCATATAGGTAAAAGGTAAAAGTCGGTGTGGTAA | condition met
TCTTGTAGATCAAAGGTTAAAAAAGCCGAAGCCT | condition met
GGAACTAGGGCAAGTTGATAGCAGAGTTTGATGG | condition met
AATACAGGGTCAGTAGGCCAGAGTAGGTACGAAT | condition met
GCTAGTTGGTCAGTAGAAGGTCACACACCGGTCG | condition not met
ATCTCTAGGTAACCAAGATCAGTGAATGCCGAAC | condition met
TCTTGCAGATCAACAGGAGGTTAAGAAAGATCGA | condition not met
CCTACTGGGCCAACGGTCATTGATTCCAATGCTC | condition met
CCAGACATGTGAGAAGGTAACTCAGCCTCGATTA | condition not met
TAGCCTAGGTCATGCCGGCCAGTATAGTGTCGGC | condition not met

====

system: PXR:RXRa (NR concentration 270 nM, RXRa partner concentration 90 nM); assay: PBM binding z-score (relative to random genomic background probes); higher = stronger binding; sequences stand for … in GC…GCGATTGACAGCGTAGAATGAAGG
# class assignment by measured PBM binding z-score: low = under 0.8, mid = from 0.8 up to 2, high = 2 and over

sequence text | test target | classification
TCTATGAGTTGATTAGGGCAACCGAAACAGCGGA | PXR:RXRa (NR concentration 270 nM, RXRa partner concentration 90 nM) | low
ATAACAAGGTGATCGTGAGGTCGTTGATACTAAC | PXR:RXRa (NR concentration 270 nM, RXRa partner concentration 90 nM) | high
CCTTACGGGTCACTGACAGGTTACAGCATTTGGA | PXR:RXRa (NR concentration 270 nM, RXRa partner concentration 90 nM) | high
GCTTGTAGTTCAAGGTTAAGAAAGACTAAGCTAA | PXR:RXRa (NR concentration 270 nM, RXRa partner concentration 90 nM) | mid
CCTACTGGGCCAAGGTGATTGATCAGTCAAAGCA | PXR:RXRa (NR concentration 270 nM, RXRa partner concentration 90 nM) | low
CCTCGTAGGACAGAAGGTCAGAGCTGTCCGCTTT | PXR:RXRa (NR concentration 270 nM, RXRa partner concentration 90 nM) | mid
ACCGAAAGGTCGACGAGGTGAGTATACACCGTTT | PXR:RXRa (NR concentration 270 nM, RXRa partner concentration 90 nM) | high
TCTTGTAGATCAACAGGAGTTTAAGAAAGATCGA | PXR:RXRa (NR concentration 270 nM, RXRa partner concentration 90 nM) | low
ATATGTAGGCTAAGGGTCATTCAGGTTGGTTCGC | PXR:RXRa (NR concentration 270 nM, RXRa partner concentration 90 nM) | high
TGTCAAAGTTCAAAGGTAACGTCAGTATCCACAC | PXR:RXRa (NR concentration 270 nM, RXRa partner concentration 90 nM) | high
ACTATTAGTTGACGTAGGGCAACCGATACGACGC | PXR:RXRa (NR concentration 270 nM, RXRa partner concentration 90 nM) | low
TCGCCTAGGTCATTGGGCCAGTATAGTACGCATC | PXR:RXRa (NR concentration 270 nM, RXRa partner concentration 90 nM) | mid
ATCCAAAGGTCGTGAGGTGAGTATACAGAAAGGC | PXR:RXRa (NR concentration 270 nM, RXRa partner concentration 90 nM) | high
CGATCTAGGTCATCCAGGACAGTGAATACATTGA | PXR:RXRa (NR concentration 270 nM, RXRa partner concentration 90 nM) | high
ATCTCTAGGTAAAGATAGCTCAGTGAATGCAAAT | PXR:RXRa (NR concentration 270 nM, RXRa partner concentration 90 nM) | low
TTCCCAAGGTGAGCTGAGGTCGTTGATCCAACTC | PXR:RXRa (NR concentration 270 nM, RXRa partner concentration 90 nM) | high
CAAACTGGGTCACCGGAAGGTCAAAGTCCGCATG | PXR:RXRa (NR concentration 270 nM, RXRa partner concentration 90 nM) | high
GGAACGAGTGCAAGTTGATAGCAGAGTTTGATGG | PXR:RXRa (NR concentration 270 nM, RXRa partner concentration 90 nM) | mid
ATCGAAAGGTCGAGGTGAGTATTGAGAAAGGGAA | PXR:RXRa (NR concentration 270 nM, RXRa partner concentration 90 nM) | high
TCTAGCAGGCAAGAGGGTCACTCAAGAGGTACGG | PXR:RXRa (NR concentration 270 nM, RXRa partner concentration 90 nM) | mid
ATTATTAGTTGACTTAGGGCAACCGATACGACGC | PXR:RXRa (NR concentration 270 nM, RXRa partner concentration 90 nM) | mid
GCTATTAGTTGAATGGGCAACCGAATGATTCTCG | PXR:RXRa (NR concentration 270 nM, RXRa partner concentration 90 nM) | low
GTACAAAGGTGAATAGGTCGTTGATGAGTAGGCG | PXR:RXRa (NR concentration 270 nM, RXRa partner concentration 90 nM) | high
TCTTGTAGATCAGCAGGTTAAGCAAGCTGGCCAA | PXR:RXRa (NR concentration 270 nM, RXRa partner concentration 90 nM) | low
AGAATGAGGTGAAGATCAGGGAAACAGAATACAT | PXR:RXRa (NR concentration 270 nM, RXRa partner concentration 90 nM) | low
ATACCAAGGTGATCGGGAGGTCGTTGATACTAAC | PXR:RXRa (NR concentration 270 nM, RXRa partner concentration 90 nM) | high
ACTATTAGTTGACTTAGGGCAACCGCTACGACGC | PXR:RXRa (NR concentration 270 nM, RXRa partner concentration 90 nM) | low
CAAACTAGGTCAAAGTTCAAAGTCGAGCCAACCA | PXR:RXRa (NR concentration 270 nM, RXRa partner concentration 90 nM) | high
GCAGACAGGTCAAACGCAGGTAACTCAGGGTGGC | PXR:RXRa (NR concentration 270 nM, RXRa partner concentration 90 nM) | high
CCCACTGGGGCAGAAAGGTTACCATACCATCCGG | PXR:RXRa (NR concentration 270 nM, RXRa partner concentration 90 nM) | low
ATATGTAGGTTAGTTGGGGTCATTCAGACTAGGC | PXR:RXRa (NR concentration 270 nM, RXRa partner concentration 90 nM) | high
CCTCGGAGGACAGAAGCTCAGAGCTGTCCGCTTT | PXR:RXRa (NR concentration 270 nM, RXRa partner concentration 90 nM) | low
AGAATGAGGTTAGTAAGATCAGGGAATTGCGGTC | PXR:RXRa (NR concentration 270 nM, RXRa partner concentration 90 nM) | low
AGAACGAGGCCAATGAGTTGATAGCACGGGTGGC | PXR:RXRa (NR concentration 270 nM, RXRa partner concentration 90 nM) | low
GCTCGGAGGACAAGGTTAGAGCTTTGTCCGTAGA | PXR:RXRa (NR concentration 270 nM, RXRa partner concentration 90 nM) | low
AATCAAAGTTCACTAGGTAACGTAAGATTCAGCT | PXR:RXRa (NR concentration 270 nM, RXRa partner concentration 90 nM) | high
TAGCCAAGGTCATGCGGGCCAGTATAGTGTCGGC | PXR:RXRa (NR concentration 270 nM, RXRa partner concentration 90 nM) | high
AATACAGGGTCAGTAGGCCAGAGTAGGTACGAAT | PXR:RXRa (NR concentration 270 nM, RXRa partner concentration 90 nM) | mid
GCTCGGAGGCCAAGGTCAGAGCTTTGTCCGTAGA | PXR:RXRa (NR concentration 270 nM, RXRa partner concentration 90 nM) | mid
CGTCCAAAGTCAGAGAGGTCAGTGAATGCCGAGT | PXR:RXRa (NR concentration 270 nM, RXRa partner concentration 90 nM) | high
CCTCGGAGGGCAGAAGGTCAGAGCTGTCCGCTTT | PXR:RXRa (NR concentration 270 nM, RXRa partner concentration 90 nM) | mid
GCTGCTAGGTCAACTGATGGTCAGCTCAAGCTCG | PXR:RXRa (NR concentration 270 nM, RXRa partner concentration 90 nM) | mid
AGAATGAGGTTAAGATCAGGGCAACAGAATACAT | PXR:RXRa (NR concentration 270 nM, RXRa partner concentration 90 nM) | high
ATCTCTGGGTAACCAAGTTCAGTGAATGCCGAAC | PXR:RXRa (NR concentration 270 nM, RXRa partner concentration 90 nM) | high
TCATATAGGAAAAGGTGAAAGTCGAACGATATGA | PXR:RXRa (NR concentration 270 nM, RXRa partner concentration 90 nM) | mid
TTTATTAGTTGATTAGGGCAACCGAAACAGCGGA | PXR:RXRa (NR concentration 270 nM, RXRa partner concentration 90 nM) | low
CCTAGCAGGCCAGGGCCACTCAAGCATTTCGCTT | PXR:RXRa (NR concentration 270 nM, RXRa partner concentration 90 nM) | low
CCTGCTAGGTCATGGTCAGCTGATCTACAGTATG | PXR:RXRa (NR concentration 270 nM, RXRa partner concentration 90 nM) | high
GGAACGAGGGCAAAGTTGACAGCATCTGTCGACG | PXR:RXRa (NR concentration 270 nM, RXRa partner concentration 90 nM) | mid
